# key: entry, value: activity coefficient
assay: activity coefficient (dimensionless); of the first substance listed, at infinite dilution; xn = mol fraction of the nth substance listed; settings: 343 K; 101 kPa; Liquid; Chromatography; x1 = 0
Answer as a number with no unit attached.

Study these solved cases before continuing.
ClC(Cl)(Cl)Cl [tetrachloromethane] + CCCCn1cc[n+](C)c1.F[B-](F)(F)F :: 5.73
CCc1ccccc1 [ethylbenzene] + CCCCCCCC[n+]1ccn(C)c1.F[B-](F)(F)F :: 2.66
CCCCCC [hexane] + CCCCCCCC[n+]1ccn(C)c1.F[B-](F)(F)F :: 12.2

### Prompt Would you mind telling me what activity coefficient value was observed for C=CCCCC [hex-1-ene] + CCCCCCn1cc[n+](C)c1.F[B-](F)(F)F ?
### Response 14.8

### Prompt Would you mind telling me what activity coefficient value was observed for CCCCCC [hexane] + CCn1cc[n+](C)c1.F[B-](F)(F)F ?
### Response 64.8

* * *

# key: entry, value: activity coefficient
test: activity coefficient (dimensionless); of the first substance listed, at infinite dilution; xn = mol fraction of the nth substance listed; conditions: 343 K; 101 kPa; Liquid; Chromatography; x1 = 0

CC(C)CC(C)(C)C [2,2,4-trimethylpentane] + CCCCCCn1cc[n+](C)c1.F[B-](F)(F)F :: 44.5
CC(C)O [propan-2-ol] + CCn1cc[n+](C)c1.F[B-](F)(F)F :: 1.01
Cc1ccccc1 [toluene] + CCCCn1cc[n+](C)c1.F[B-](F)(F)F :: 4.13

### Prompt Would you mind telling me what activity coefficient value was observed for CCOCC [diethyl ether] + CCCCCCCC[n+]1ccn(C)c1.F[B-](F)(F)F ?
### Response 3.39

### Prompt Would you mind telling me what activity coefficient value was observed for CC(C)=O [acetone] + CCCCCCn1cc[n+](C)c1.F[B-](F)(F)F ?
### Response 0.91

### Prompt Would you mind telling me what activity coefficient value was observed for ClC=C(Cl)Cl [trichloroethene] + CCCCCCn1cc[n+](C)c1.F[B-](F)(F)F ?
### Response 2.53

### Prompt Would you mind telling me what activity coefficient value was observed for C1CCCCC1 [cyclohexane] + CCCCCCCC[n+]1ccn(C)c1.F[B-](F)(F)F ?
### Response 7.36

### Prompt Would you mind telling me what activity coefficient value was observed for CO [methanol] + CCCCCCn1cc[n+](C)c1.F[B-](F)(F)F ?
### Response 0.99

### Prompt Would you mind telling me what activity coefficient value was observed for ClC(Cl)Cl [trichloromethane] + CCCCCCCC[n+]1ccn(C)c1.F[B-](F)(F)F ?
### Response 0.7

* * *

# key: entry, value: activity coefficient
assay: activity coefficient (dimensionless); of the first substance listed, at infinite dilution; xn = mol fraction of the nth substance listed; settings: 303 K; 101 kPa; Liquid; Chromatography; x1 = 0
Answer as a number with no unit attached.

CO [methanol] + CCCCn1cc[n+](C)c1.F[B-](F)(F)F :: 1.32
CCCCCC [hexane] + CCCCn1cc[n+](C)c1.F[B-](F)(F)F :: 93.4
CCCCCCC [heptane] + CCCCCCCC[n+]1ccn(C)c1.F[B-](F)(F)F :: 16.7
C=CCCCC [hex-1-ene] + CCCCCCCC[n+]1ccn(C)c1.F[B-](F)(F)F :: 7.92

Here is the next item to consider.
### Prompt Would you mind telling me what activity coefficient value was observed for c1ccccc1 [benzene] + CCCCn1cc[n+](C)c1.F[B-](F)(F)F ?
### Response 2.39

* * *

assay: activity coefficient (dimensionless); of the first substance listed, at infinite dilution; xn = mol fraction of the nth substance listed; conditions: 343 K; 101 kPa; Liquid; Chromatography; x1 = 0
Note to self: values exactly at 4 are Condition met. So activity coefficient at or above 4 is Condition met, below is Condition not met.

Sample answers from the record:
CC(C)=O [acetone] + CCn1cc[n+](C)c1.F[B-](F)(F)F :: Condition not met
ClC(Cl)Cl [trichloromethane] + CCn1cc[n+](C)c1.F[B-](F)(F)F :: Condition not met
CCCCCC [hexane] + CCCCCCn1cc[n+](C)c1.F[B-](F)(F)F :: Condition met
CCO [ethanol] + CCCCn1cc[n+](C)c1.F[B-](F)(F)F :: Condition not met
CC(C)O [propan-2-ol] + CCCCCCCC[n+]1ccn(C)c1.F[B-](F)(F)F :: Condition not met

### Prompt Determine whether measured activity coefficient meets or exceeds 4 for CCO [ethanol] + CCCCCCn1cc[n+](C)c1.F[B-](F)(F)F
### Response Condition not met

### Prompt Determine whether measured activity coefficient meets or exceeds 4 for CCCCCCC [heptane] + CCCCCCCC[n+]1ccn(C)c1.F[B-](F)(F)F
### Response Condition met

* * *

experiment: activity coefficient (dimensionless); of the first substance listed, at infinite dilution; xn = mol fraction of the nth substance listed; conditions: 343 K; 101 kPa; Liquid; Chromatography; x1 = 0
recordedEndpoint: activity coefficient

Study these solved cases before continuing.
c1ccccc1 [benzene] + CCn1cc[n+](C)c1.F[B-](F)(F)F :: 2.47
ClC(Cl)Cl [trichloromethane] + CCCCCCn1cc[n+](C)c1.F[B-](F)(F)F :: 0.92
ClC(Cl)Cl [trichloromethane] + CCCCn1cc[n+](C)c1.F[B-](F)(F)F :: 1.29

### Prompt Would you mind telling me what activity coefficient value was observed for CO [methanol] + CCCCCCCC[n+]1ccn(C)c1.F[B-](F)(F)F ?
### Response 0.85

### Prompt Would you mind telling me what activity coefficient value was observed for C1CCCCC1 [cyclohexane] + CCn1cc[n+](C)c1.F[B-](F)(F)F ?
### Response 38.9

### Prompt Would you mind telling me what activity coefficient value was observed for CC(C)CC(C)(C)C [2,2,4-trimethylpentane] + CCn1cc[n+](C)c1.F[B-](F)(F)F ?
### Response 162

### Prompt Would you mind telling me what activity coefficient value was observed for Cc1ccccc1 [toluene] + CCn1cc[n+](C)c1.F[B-](F)(F)F ?
### Response 4.03

### Prompt Would you mind telling me what activity coefficient value was observed for CC(C)O [propan-2-ol] + CCCCn1cc[n+](C)c1.F[B-](F)(F)F ?
### Response 2.17

* * *

test: activity coefficient (dimensionless); of the first substance listed, at infinite dilution; xn = mol fraction of the nth substance listed; settings: 343 K; 101 kPa; Liquid; Chromatography; x1 = 0
Note to self: values exactly at 0.8 are condition met. So activity coefficient at or above 0.8 is condition met, below is condition not met.

Sample answers from the record:
CCCCCCC [heptane] + CCCCCCn1cc[n+](C)c1.F[B-](F)(F)F :: condition met
CO [methanol] + CCn1cc[n+](C)c1.F[B-](F)(F)F :: condition not met
Cc1ccccc1 [toluene] + CCCCCCn1cc[n+](C)c1.F[B-](F)(F)F :: condition met
ClCCCl [1,2-dichloroethane] + CCCCCCn1cc[n+](C)c1.F[B-](F)(F)F :: condition met

Let's switch to this compound now.
### Prompt Determine whether measured activity coefficient meets or exceeds 0.8 for CC(C)=O [acetone] + CCCCCCCC[n+]1ccn(C)c1.F[B-](F)(F)F
### Response condition met

* * *

# key: entry, value: activity coefficient
assay: activity coefficient (dimensionless); of the first substance listed, at infinite dilution; xn = mol fraction of the nth substance listed; conditions: 303 K; 101 kPa; Liquid; Chromatography; x1 = 0
Answer as a number with no unit attached.

Study these solved cases before continuing.
CCCCCC [hexane] + CCCCCCn1cc[n+](C)c1.F[B-](F)(F)F :: 34.8
CC(C)CC(C)(C)C [2,2,4-trimethylpentane] + CCn1cc[n+](C)c1.F[B-](F)(F)F :: 222

### Prompt Would you mind telling me what activity coefficient value was observed for CCCCCC [hexane] + CCn1cc[n+](C)c1.F[B-](F)(F)F ?
### Response 125

* * *

assay: activity coefficient (dimensionless); of the first substance listed, at infinite dilution; xn = mol fraction of the nth substance listed; settings: 323 K; 101 kPa; Liquid; Chromatography; x1 = 0
Note to self: values exactly at 2 are 1 (yes). So activity coefficient at or above 2 is 1 (yes), below is 0 (no).

CC(C)O [propan-2-ol] + CCCCCCn1cc[n+](C)c1.F[B-](F)(F)F :: 0 (no)
CCO [ethanol] + CCn1cc[n+](C)c1.F[B-](F)(F)F :: 0 (no)
C1CCCCC1 [cyclohexane] + CCCCn1cc[n+](C)c1.F[B-](F)(F)F :: 1 (yes)
CC(C)O [propan-2-ol] + CCCCCCCC[n+]1ccn(C)c1.F[B-](F)(F)F :: 0 (no)
CCc1ccccc1 [ethylbenzene] + CCCCCCn1cc[n+](C)c1.F[B-](F)(F)F :: 1 (yes)
CCCCCC [hexane] + CCCCCCn1cc[n+](C)c1.F[B-](F)(F)F :: 1 (yes)

### Prompt Determine whether measured activity coefficient meets or exceeds 2 for ClC=C(Cl)Cl [trichloroethene] + CCn1cc[n+](C)c1.F[B-](F)(F)F
### Response 1 (yes)

### Prompt Determine whether measured activity coefficient meets or exceeds 2 for c1ccccc1 [benzene] + CCn1cc[n+](C)c1.F[B-](F)(F)F
### Response 1 (yes)

### Prompt Determine whether measured activity coefficient meets or exceeds 2 for CCCCCC [hexane] + CCn1cc[n+](C)c1.F[B-](F)(F)F
### Response 1 (yes)

### Prompt Determine whether measured activity coefficient meets or exceeds 2 for CCCCCC [hexane] + CCCCn1cc[n+](C)c1.F[B-](F)(F)F
### Response 1 (yes)

### Prompt Determine whether measured activity coefficient meets or exceeds 2 for ClC=C(Cl)Cl [trichloroethene] + CCCCn1cc[n+](C)c1.F[B-](F)(F)F
### Response 1 (yes)

### Prompt Determine whether measured activity coefficient meets or exceeds 2 for C=CCCCC [hex-1-ene] + CCCCCCCC[n+]1ccn(C)c1.F[B-](F)(F)F
### Response 1 (yes)

### Prompt Determine whether measured activity coefficient meets or exceeds 2 for ClCCCl [1,2-dichloroethane] + CCCCCCn1cc[n+](C)c1.F[B-](F)(F)F
### Response 0 (no)

### Prompt Determine whether measured activity coefficient meets or exceeds 2 for CC(C)CC(C)(C)C [2,2,4-trimethylpentane] + CCCCn1cc[n+](C)c1.F[B-](F)(F)F
### Response 1 (yes)

### Prompt Determine whether measured activity coefficient meets or exceeds 2 for CC(C)O [propan-2-ol] + CCCCn1cc[n+](C)c1.F[B-](F)(F)F
### Response 1 (yes)

### Prompt Determine whether measured activity coefficient meets or exceeds 2 for CCOC(C)=O [ethyl acetate] + CCCCCCCC[n+]1ccn(C)c1.F[B-](F)(F)F
### Response 0 (no)

### Prompt Determine whether measured activity coefficient meets or exceeds 2 for ClC(Cl)Cl [trichloromethane] + CCCCCCn1cc[n+](C)c1.F[B-](F)(F)F
### Response 0 (no)

### Prompt Determine whether measured activity coefficient meets or exceeds 2 for ClCCCl [1,2-dichloroethane] + CCCCn1cc[n+](C)c1.F[B-](F)(F)F
### Response 0 (no)

### Prompt Determine whether measured activity coefficient meets or exceeds 2 for C1CCCCC1 [cyclohexane] + CCn1cc[n+](C)c1.F[B-](F)(F)F
### Response 1 (yes)

### Prompt Determine whether measured activity coefficient meets or exceeds 2 for CC(C)=O [acetone] + CCCCCCn1cc[n+](C)c1.F[B-](F)(F)F
### Response 0 (no)

### Prompt Determine whether measured activity coefficient meets or exceeds 2 for CCCO [propan-1-ol] + CCCCCCn1cc[n+](C)c1.F[B-](F)(F)F
### Response 0 (no)

### Prompt Determine whether measured activity coefficient meets or exceeds 2 for ClC(Cl)(Cl)Cl [tetrachloromethane] + CCCCCCCC[n+]1ccn(C)c1.F[B-](F)(F)F
### Response 1 (yes)

### Prompt Determine whether measured activity coefficient meets or exceeds 2 for CCOC(C)=O [ethyl acetate] + CCCCn1cc[n+](C)c1.F[B-](F)(F)F
### Response 1 (yes)

### Prompt Determine whether measured activity coefficient meets or exceeds 2 for Cc1ccccc1 [toluene] + CCCCCCCC[n+]1ccn(C)c1.F[B-](F)(F)F
### Response 0 (no)

### Prompt Determine whether measured activity coefficient meets or exceeds 2 for CCCO [propan-1-ol] + CCn1cc[n+](C)c1.F[B-](F)(F)F
### Response 0 (no)

### Prompt Determine whether measured activity coefficient meets or exceeds 2 for c1ccccc1 [benzene] + CCCCCCn1cc[n+](C)c1.F[B-](F)(F)F
### Response 0 (no)

### Prompt Determine whether measured activity coefficient meets or exceeds 2 for CCOC(C)=O [ethyl acetate] + CCCCCCn1cc[n+](C)c1.F[B-](F)(F)F
### Response 1 (yes)
